Please respond with reported CRF1R EC50 for every item in the list.
# system-name: CRF1R
# protocol-summary: cell-based or functional assay
Ends that are not written are not given here.
One number for each entry, in nM.

ZGPPISIDLPWQLLRKMIEIEKQEKEKQQAANNRLLLDTI (C-terminal amide) [SEQ ID NO 210] :: 43.5
ZGPPISIDLPTYLLRKMIEIEKQEKEKQQATTNARILARV (C-terminal amide) [SEQ ID NO 151] :: 1000

Provide reported CRF1R EC50 for each item, in the same order as listed.
1. SQEPPISLDLPLQLLREVLEMTKADQLAQQAHSNRKLLDIA-NH2 [SEQ ID NO 95]
2. ZGPPISIDLPIQLLRKMIEIEKQEKEKQQATTNARILARV (C-terminal amide) [SEQ ID NO 150]
3. ZGPPISIDLPFLLLRKMIEIEKQEKEKQQAANNRLLLDTI (C-terminal amide) [SEQ ID NO 191]

Result:
1: 100; 2: 1000; 3: 63.7
